tested on: SF-539 CNS; experiment: NCI-60 one-dose screen, 48 h (100 = growth as untreated, 0 = no growth, -100 = all killed); conditions: 10 µM unless noted
Compounds without any hit were thinned out: in the full panel of roughly 83,000, 20% have a hit.
The following compounds are shown together with reported growth values.
API: value field is a number in %; no unit string.

Example results:
CCN(CC)CC(O)COc1c(Br)c(Br)c(Br)c2c1OC(C)(C)C2 (stereo not given); 108
OCCn1cc(-c2nc(-c3c[nH]c4ncccc34)cs2)c2cc(F)ccc21; 81.5
CCCCNCCCCCNc1cc(OC)cc2cccnc12; 92.8
CCC(C)N(CCNc1cc(OC)cc2cccnc12)CC(C)C (stereo not given); 115
CC(C)c1ccc(-n2c(=S)[nH]c3sc4cc(O)ccc4c3c2=O)cc1; 93.6
Cn1ccnc1C(=O)/C=C/c1ccc(C(=O)Nc2ccccc2O)cc1; -19.3
N=C(N)c1ccc(-c2ccc(-c3ccc(Cl)cc3Cl)s2)cc1; -28.9
Cc1cn(-c2cc(NC(=O)c3cncc(C#Cc4cnc(N)c5ncccc45)c3)cc(C(F)(F)F)c2)cn1; 72.3

Dear colleague, I am looking for the recorded growth of the following compound: `CCn1c(SCC(=O)N/N=C(\C)c2ccc(Cl)cc2)nc2c1c(=O)n(C)c(=O)n2C`
96.3

Which value of growth has been reported for `COc1ccc2cc1Oc1ccc(cc1)C[C@H]1c3c(cc4c(c3Oc3cc5c(cc3OC)CCN(C)[C@@H]5C2)OCO4)CCN1C` in the records?
-55.7

---

tested on: SK-MEL-28 melanoma; experiment: NCI-60 one-dose screen, 48 h; conditions: 10 µM unless noted
This is part of a sample that, as a whole, favours compounds with a hit. Of some 83,000 tested, about 20% had one in any assay. The source made the active and inactive calls. How the source made its calls: active means growth percent below 10; inactive means the rest.
Thanks in advance; please answer with one of these: true = active, false = inactive

Would you please look over these solved cases?
O=C1c2ccc3c4c5ccc(c24)C(=O)N1CCCOCCCCOCCCNCc1ccc(cc1)CNCCCOCCCCOCCCN(C3=O)C5=O; true
c1ccc(-c2oc(-c3ccccc3)c(CN3CCCCC3)c2CN2CCCCC2)cc1; false
CC(C)=CC(=O)OCC(=O)O[C@@H]1C[C@]2(C(C)C)O[C@@]1(C)[C@@H]1CC[C@@H](C)[C@H]1[C@@H]2OC(=O)/C=C/c1ccccc1; false

Next, consider the following compound.
Called result for `O=C1Nc2ccccc2/C1=C/c1cccn1CCCCn1c2ccccc2c(=O)c2ccccc21`
false

---

system: M14 melanoma; assay: NCI-60 one-dose screen, 48 h (100 = growth as untreated, 0 = no growth, -100 = all killed); conditions: 10 µM unless noted
This is part of a sample that, as a whole, favours compounds with a hit. Of some 83,000 tested, about 20% had one in any assay.
quantityKind: growth (%)
Field: numeric (%). Do not append units.

growth lookup needed for `O=C(Nc1nc2cc(C(=O)N3CCN(C(c4ccccc4)c4ccccc4)CC3)ccc2o1)c1ccc(NC2CCCCC2)c([N+](=O)[O-])c1` , thanks.
58.2

If you can, please state the reported growth value of `COCCn1cc(-c2nc(-c3cc4cccnc4[nH]3)cs2)c2cc(OC)ccc21` .
37.6

Query (compound): `COc1ccc(NC2=C(I)C(=O)c3ncccc3C2=O)cc1` ; field requested: growth
-65.7

Give its growth value. Item: `Cn1ccnc1C(=O)/C=C/c1ccc(C(=O)Nc2ccccc2O)cc1`
71.5

Suppose we examine the compound `CCNCCNc1cc(-c2ccc(C(F)(F)F)cc2)c(C#N)c2nc3ccccc3n12` ; what growth value has been reported?
-82.5

Which growth is listed for `CCCC/C=C/[C@@H]1C[C@H]1CCO` ?
98.9

What does the record list as growth for `Cc1c(O)cc(-c2cnc(Nc3ccccc3)s2)c(O)c1C` ?
93.6

What growth value was documented for this compound, `O=C1C(Cl)=C(NCCCCCCNC2=C(Cl)C(=O)c3ccccc3C2=O)C(=O)c2ccccc21` ?
87.9

GET /values?readout=growth&item= `O=C(Nc1ccc(OS(=O)(=O)c2ccc(F)cc2)cc1)C1CCCCCC1`
85.9

Which growth is reported for this compound? `Oc1c(Br)cc(Br)c2ccc(Cn3cc(-c4ccc(C(F)(F)F)cc4)nn3)nc12`
48.6
